- Test system: Staphylococcus aureus 101
- Method notes: MIC against Staphylococcus aureus 101
- Format: cell-based
- Test context: Table 2; Staphylococcus aureus 101, MRSA- and trimethoprim-resistant; clinical isolate; read-out: MIC Sa101
Measurement label: MIC (µg/mL)
Form entry: value (µg/mL) — number only.

Molecule: CCOc1cc(Cc2cnc(N)nc2N)cc(OCC)c1-c1ccc(N)nc1
MIC [µg/mL]: 8
//
Molecule: CCOc1cc(Cc2cnc(N)nc2N)cc(OS(=O)(=O)N(C)C(C)C)c1-c1cccc(N)c1
MIC [µg/mL]: 2
//
Molecule: CCOc1cc(Cc2cnc(N)nc2N)cc(OCCc2ccccn2)c1-c1ccc(O)cc1
MIC [µg/mL]: 8
//
Molecule: CCOc1cc(Cc2cnc(N)nc2N)cc(OS(=O)(=O)C2CC2)c1-c1cccc(N)c1
MIC [µg/mL]: 2

// next entry
Quick one: give measured MIC for `CCOc1cc(Cc2cnc(N)nc2N)cc(OS(=O)(=O)c2ccc(OC)c(F)c2)c1-c1ccc(O)cc1`
8

* * *

- Study system: purified DHFR of strain Sp1/1 of Streptococcus pneumoniae (Streptococcus pneumoniae serotype 4, UniProt Q54801)
- Sequence (Q54801 1-168 I100L): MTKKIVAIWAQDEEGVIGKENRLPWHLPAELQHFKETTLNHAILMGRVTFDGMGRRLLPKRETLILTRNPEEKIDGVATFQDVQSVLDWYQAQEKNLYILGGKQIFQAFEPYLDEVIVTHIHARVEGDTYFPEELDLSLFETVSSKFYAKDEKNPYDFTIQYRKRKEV
- Type: biochemical
- Test context: Table 2; IC50 against purified DHFR of strain Sp1/1
Hi! Could you tag entries with IC50 below 10 nM as met, and those at or above as not met? Much appreciated.

Compound: CCOc1cc(Cc2cnc(N)nc2N)cc(OS(=O)(=O)C2CC2)c1-c1ccc(O)cc1 [Example 15-e]
Class name: not met

Compound: CCOc1cc(Cc2cnc(N)nc2N)cc(OCC)c1-c1ccc(O)cc1 [Example 02-t]
Class name: not met

Compound: C=C(C)COc1cc(Cc2cnc(N)nc2N)cc(OCC)c1-c1ccc2c(c1)OCO2 [Example 10-f]
Class name: not met

Compound: CCOc1cc(Cc2cnc(N)nc2N)cc(OCC)c1-c1ccc(COCC(=O)N2CCOCC2)s1 [Example 03-a]
Class name: not met

Criterion: IC50 strictly below 10 nM. Is it met by CCOc1cc(Cc2cnc(N)nc2N)cc(OS(=O)(=O)N(C)C(C)C)c1-c1cccc(N)c1 [Example 19-d] ?
met

# check: IC50 < 10 nM for CCOc1cc(Cc2cnc(N)nc2N)cc(OS(=O)(=O)CC2CCCO2)c1-c1ccc(N)c(C)c1 (stereo not shown) [Example 42-c]
met

Does CCOc1cc(Cc2cnc(N)nc2N)cc(OCC)c1-c1ccc(N)nc1 [Example 04-q] have IC50 strictly under 10 nM?
not met

* * *

- Study system: purified DHFR of strain 157/4696 of Staphylococcus aureus (Staphylococcus aureus)
- Sequence (P13955 whole entry): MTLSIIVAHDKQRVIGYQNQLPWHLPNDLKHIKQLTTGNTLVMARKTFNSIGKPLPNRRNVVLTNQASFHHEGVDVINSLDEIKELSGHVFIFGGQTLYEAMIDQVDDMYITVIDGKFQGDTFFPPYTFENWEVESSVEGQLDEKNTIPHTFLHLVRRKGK
- Method notes: biochemical
pIC50: −log10 of the molar value.
// label = 1 if pIC50 is not less than 6, otherwise -1

Some solved entries appear below for comparison.
Compound: CCOc1cc(Cc2cnc(N)nc2N)cc(OS(=O)C(C)(C)C)c1-c1ccc(O)cc1 (centres unmarked)
Class name: 1
//
Compound: CCOc1cc(Cc2cnc(N)nc2N)cc(OS(=O)(=O)c2ccc(OC)c(F)c2)c1-c1cccc(N)c1
Class name: 1
//
Compound: CCOc1cc(Cc2cnc(N)nc2N)cc(OS(=O)(=O)N(C)C)c1-c1ccc(C)c(N)c1 [Example 31a]
Class name: 1
//
Compound: CCOc1cc(Cc2cnc(N)nc2N)cc(OCC)c1-c1cccc(OC)c1
Class name: -1

Let's switch to this compound now.
Tell me whether pIC50 is at least 6 here: `CCOc1cc(Cc2cnc(N)nc2N)cc(OS(=O)(=O)C2CC2)c1-c1ccc(O)cc1`
1

* * *

Item-by-item account of IC50
- Study system: purified DHFR of strain Sp1/1 of Streptococcus pneumoniae (Streptococcus pneumoniae serotype 4)
- Sequence (Q54801 1-168 I100L): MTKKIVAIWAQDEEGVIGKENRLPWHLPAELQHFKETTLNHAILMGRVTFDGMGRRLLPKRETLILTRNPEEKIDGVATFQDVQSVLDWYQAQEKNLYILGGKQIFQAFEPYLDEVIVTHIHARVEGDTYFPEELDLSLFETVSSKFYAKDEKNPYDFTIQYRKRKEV
- Format: biochemical
- Test context: Table 2; IC50 against purified DHFR of strain Sp1/1
Respond with the bare value in nM.

State its IC50 for this compound: `CCOc1cc(Cc2cnc(N)nc2N)cc(OCC)c1-c1ccc(N)c(C#N)c1`
42

Give IC50 for the following compound: `CCOc1cc(Cc2cnc(N)nc2N)cc(OCC)c1-c1cccc(C#N)c1`
180

Please list IC50 recorded for the compound `CCCOc1cc(Cc2cnc(N)nc2N)cc(OCCC)c1-c1cccc(O)c1`
20

Provide measured IC50 value, entry: `CCOc1cc(Cc2cnc(N)nc2N)cc(OCC2(C#N)CC2)c1-c1ccc(O)cc1`
49

Supply reported IC50 belonging to this compound: `CCOc1cc(Cc2cnc(N)nc2N)cc(OS(=O)(=O)N(C)CC)c1-c1cc(N)cc(F)c1`
5.2

* * *

- Tested on: Streptococcus pneumoniae 1/1
- Method notes: MIC against Streptococcus pneumoniae 1/1
- Format: cell-based
- Test context: Table 2; Streptococcus pneumoniae 1/1, trimethoprim- and penicillin-resistant, serotype 6; clinical isolate; read-out: MIC Sp1/1
Measurement label: MIC (µg/mL)
Write the value in µg/mL as a bare number.

Here is how some molecules turned out for MIC.
Molecule: CCOc1cc(Cc2cnc(N)nc2N)cc(OCC)c1-c1cc(C)nc(C)c1
Study system: Streptococcus pneumoniae 1/1
MIC, µg/mL: 8
//
Molecule: CCOc1cc(Cc2cnc(N)nc2N)cc(OS(=O)(=O)N(C)CC)c1-c1ccc(O)cc1
Study system: Streptococcus pneumoniae 1/1
MIC, µg/mL: 1
//
Molecule: C=C(C)COc1cc(Cc2cnc(N)nc2N)cc(OCC)c1-c1ccc2c(c1)OCO2
Study system: Streptococcus pneumoniae 1/1
MIC, µg/mL: 8
//
Molecule: CCOc1cc(Cc2cnc(N)nc2N)cc(OC2CCCC2)c1-c1ccc(O)cc1
Study system: Streptococcus pneumoniae 1/1
MIC, µg/mL: 2
//
Molecule: CCOc1cc(Cc2cnc(N)nc2N)cc(OCC(C)(C)CCC#N)c1-c1ccc(O)cc1
Study system: Streptococcus pneumoniae 1/1
MIC, µg/mL: 2
//
Molecule: CCCOc1cc(Cc2cnc(N)nc2N)cc(OCC)c1-c1ccc(OC)cc1
Study system: Streptococcus pneumoniae 1/1
MIC, µg/mL: 4

Output MIC of `CCOc1cc(Cc2cnc(N)nc2N)cc(OCC)c1-c1ccc(N)nc1`
4

Please report MIC for the following molecule: `CCOc1cc(Cc2cnc(N)nc2N)cc(OS(=O)(=O)N2CCCC2)c1-c1ccc(O)cc1`
1

Output MIC of `CCOc1cc(Cc2cnc(N)nc2N)cc(OC2CCC2)c1-c1ccc(O)cc1`
2

Provide one value: measured MIC of `CCOc1cc(Cc2cnc(N)nc2N)cc(OCC(F)(F)F)c1-c1ccc(O)cc1`
2

Please list MIC recorded for the molecule `CCOc1cc(Cc2cnc(N)nc2N)cc(OCC2CC2)c1-c1ccc(O)cc1`
2

Annotate the molecule `CCOc1cc(Cc2cnc(N)nc2N)cc(OS(=O)(=O)C2CC2)c1-c1ccc(NC)cc1` with its measured MIC.
1

Return the recorded MIC value; entry: `CCOc1cc(Cc2cnc(N)nc2N)cc(OS(=O)(=O)CC)c1-c1ccc2c(c1)OCO2`
2

Give the reported value of MIC for this record: `CCOc1cc(Cc2cnc(N)nc2N)cc(OCC)c1-c1ccc2cc[nH]c2c1`
2

Annotate the molecule `CCOc1cc(Cc2cnc(N)nc2N)cc(OS(=O)(=O)C2CCC2)c1-c1cccc(N)c1` with its measured MIC.
1

For `CCOc1cc(Cc2cnc(N)nc2N)cc(OS(=O)(=O)CC(C)(C)C)c1-c1ccc(N)c(F)c1` , write its MIC.
0.25

Specify MIC for CCOc1cc(Cc2cnc(N)nc2N)cc(OC2CCC(CC#N)C2)c1-c1ccc(O)cc1 (stereo not shown) and stop.
4

Hello, please tell me recorded MIC for this one: `CCOc1cc(Cc2cnc(N)nc2N)cc(OCC)c1-c1ccc(NS(C)(=O)=O)cc1`
2

Give the value of MIC reported for the following: `CCOc1cc(Cc2cnc(N)nc2N)cc(OS(=O)(=O)CC)c1-c1cccc(N)c1`
2

Indicate its recorded MIC; the molecule in question is CCOc1cc(Cc2cnc(N)nc2N)cc(OS(=O)(=O)CC2CCCO2)c1-c1ccc(N)c(C)c1 (stereo not shown)
1

Give the reported MIC for this molecule. `CCOc1cc(Cc2cnc(N)nc2N)cc(OS(=O)(=O)c2cccs2)c1-c1cccc(N)c1`
1

Dear colleague, please send me the reported MIC for `CCOc1cc(Cc2cnc(N)nc2N)cc(OCC2CC2)c1-c1ccc(OS(C)(=O)=O)cc1` when you can.
4

Return value of MIC for input `CCOc1cc(Cc2cnc(N)nc2N)cc(OCC2(CCC#N)CC2)c1-c1ccc(OC)cc1` , no commentary.
1

Return MIC for the following molecule: `CCOc1cc(Cc2cnc(N)nc2N)cc(OCC)c1-c1cccc(O)c1`
2

Please give measured MIC of the following entry: `CCOc1cc(Cc2cnc(N)nc2N)cc(OS(=O)(=O)c2ccc(OC)c(F)c2)c1-c1cccc(N)c1`
1

Please give measured MIC of the following entry: `CCOc1cc(Cc2cnc(N)nc2N)cc(OCC)c1-c1ccc2[nH]ncc2c1`
2

Please report MIC for the following molecule: `CCOc1cc(Cc2cnc(N)nc2N)cc(OS(=O)(=O)N(C)C)c1-c1ccc(N)cc1`
1

Please give measured MIC of the following entry: `CCOc1cc(Cc2cnc(N)nc2N)cc(OCC(C)(C)COC)c1-c1ccc(O)cc1`
2
